Reference for the values: paper PMC12345137

The reader will find reported IC50 values listed item by item below.
molecular target: S. epidermidis agr-I (Staphylococcus epidermidis, UniProt Q5HMY3); experiment: cell-based
Sequence (Q5HMY3 entry or part of it): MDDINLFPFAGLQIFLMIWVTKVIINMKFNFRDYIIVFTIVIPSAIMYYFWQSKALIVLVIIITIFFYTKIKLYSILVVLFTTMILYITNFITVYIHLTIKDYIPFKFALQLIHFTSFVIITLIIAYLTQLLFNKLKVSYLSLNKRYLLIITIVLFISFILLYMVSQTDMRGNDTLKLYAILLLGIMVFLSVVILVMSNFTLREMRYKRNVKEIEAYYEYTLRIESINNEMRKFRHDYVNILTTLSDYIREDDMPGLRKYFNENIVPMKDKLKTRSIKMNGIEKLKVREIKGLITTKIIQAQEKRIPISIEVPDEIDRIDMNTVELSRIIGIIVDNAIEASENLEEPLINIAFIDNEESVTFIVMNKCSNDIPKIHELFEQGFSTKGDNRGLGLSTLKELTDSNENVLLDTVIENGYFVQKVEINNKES
Positions of bridges follow the written chain, without caps; N, C: chain ends. Residues, ends and D or L forms follow the SMILES beside them.
# unit: nM | format: bare number

compound	observation.type	result.value
NCCCC[C@H](N)C(=O)N[C@@H](Cc1ccc(O)cc1)C(=O)N[C@@H](CC(N)=O)C(=O)N1CCC[C@H]1C(=O)N[C@H]1CSC(=O)[C@H](Cc2ccccc2)NC(=O)[C@H](Cc2ccc(O)cc2)NC(=O)CNC(=O)[C@H](Cc2c[nH]c3ccccc23)NC1=O [compound 34, S. simulans AIP-III] (H-KYNPCWGYF; thioester 5-C)	IC50	0.14
CC(C)C[C@@H]1NC(=O)[C@@H](NC(=O)[C@@H]2CCCN2C(=O)[C@H](CC(N)=O)NC(=O)[C@H](Cc2ccc(O)cc2)NC(=O)[C@@H](N)CCCCN)CSC(=O)[C@H](CC(C)C)NC(=O)[C@H](Cc2ccccc2)NC(=O)CNC1=O [compound 32, S. simulans AIP-I] (H-KYNPCLGFL; thioester 5-C; N-terminus assumed)	IC50	0.74

Now take the following compound into account.
The measured IC50 that NCCCC[C@H](N)C(=O)N[C@@H](Cc1ccc(O)cc1)C(=O)N[C@@H](Cc1ccc(O)cc1)C(=O)N1CCC[C@H]1C(=O)N[C@H]1CSC(=O)[C@H](Cc2ccccc2)NC(=O)[C@H](Cc2ccc(O)cc2)NC(=O)CNC(=O)[C@H](Cc2c[nH]c3ccccc23)NC1=O [compound 33, S. simulans AIP-II] (H-KYYPCWGYF; thioester 5-C) showed for S. epidermidis agr-I (Staphylococcus epidermidis, UniProt Q5HMY3) is 0.31
